assay: antiviral activity and cytotoxicity of unmodified MPMPA (system not stated); settings: cells not given
readout.label: CC50 (µM)
Write the answer as a number in µM, unit excluded.

Fill blank: measured CC50 of the molecule COC[C@H](Cn1cnc2c(N)ncnc21)OCP(=O)(O)O is ____.
40

====

assay: cytotoxicity in human PBMCs
readout.label: CC50

Example entries and their recorded answers appear below.
Fill blank: measured CC50 of the compound CCCCCCCCCCCCCCCCOCCCOP(=O)(O)CO[C@H](COC)Cn1cnc2c(N)ncnc21 is ____.
> 10 µM

Query CCCCCCCCCCCCCCCCOCCCOP(=O)(O)CO[C@H](COC)Cn1cnc2c(=O)[nH]c(N)nc21 next
> 100 µM

Below: the item to evaluate.
Fill blank: measured CC50 of the compound CCCCCCCCCCCCCCCCCCOCCOP(=O)(O)CO[C@H](COC)Cn1cnc2c(N)ncnc21 is ____.
> 10 µM

====

Measured CC50, listed per entry.
system: Huh 7.5 cells; assay: cytotoxicity (CC50) in HCV replicon cells / Huh 7.5 liver cells; conditions: cytotoxicity in replicon cells

GET /values?readout=CC50&system=Huh 7.5 cells&item= CCCCCCCCCCCCCCCCOCCCOP(=O)(O)CO[C@H](COC)Cn1cnc2c(N)ncnc21 [Cmpd 17]
> 150 µM

Query CCCCCCCCCCCCCCCCOCCCOP(=O)(O)COC(COC(C)C)Cn1cnc2c(N)ncnc21 (racemic) [Cmpd 19] next
100 µM

Query CCCCCCCCCCCCCCCCCCOCCOP(=O)(O)CO[C@@H](COC)Cn1cnc2c(N)nc(N)nc21 [Cmpd 24] next
> 150 µM

Query CCCCCCCCCCCCCCCCOCCCOP(=O)(O)CO[C@H](COC)Cn1cnc2c(OC)ncnc21 [Cmpd 43] next
> 150 µM

Query CCCCCCCCCCCCCCCCOCCCOP(=O)(O)COC(COCC)Cn1cnc2c(N)ncnc21 (racemic) [Cmpd 18] next
99 µM

Query CCCCCCCCCCCCCCCCCCOCCOP(=O)(O)CO[C@H](COC)Cn1ccc(N)nc1=O [Cmpd 40] next
> 150 µM

More entries:
GET /values?readout=CC50&system=Huh 7.5 cells&item= CCCCCCCCCCCCCCCCOCCCOP(=O)(O)CO[C@H](COC)Cn1cnc2c(=O)[nH]c(N)nc21 [Cmpd 36]
> 150 µM

Query CCCCCCCCCCCCCCCCCCOCCOP(=O)(O)CO[C@@H](COC)Cn1cnc2c(N)ncnc21 [Cmpd 16] next
> 150 µM

Query CCCCCCCCCCCCCCCCOCCCOP(=O)(O)CO[C@H](COC)Cn1cnc2c(N)nc(N)nc21 [Cmpd 25] next
91.5 µM

Query CCCCCCCCCCCCCCCCOCCCOP(=O)(O)CO[C@H](COC)Cn1cnc2c(OC)nc(N)nc21 [Cmpd 44] next
> 150 µM

====

test system: MT-2 cells; experiment: cytotoxicity in MT-2 cells; details: MT-2 cells
Measured CC50, listed per entry.
Write the answer as a number in µM, unit excluded.

Example entries and their recorded answers appear below.
Fill blank: measured CC50 of the compound CCCCCCCCCCCCCCCCOCCCOP(=O)(O)COC(COCC)Cn1cnc2c(=O)[nH]c(N)nc21 (racemic) [Cmpd 37] is ____.
14.9

Query CCCCCCCCCCCCCCCCOCCCOP(=O)(O)CO[C@H](COC)Cn1cnc2c(N)ncnc21 [Cmpd 17] next
32

Query CCCCCCCCCCCCCCCCOCCCOP(=O)(O)CO[C@H](COC)Cn1cnc2c(OC)ncnc21 [Cmpd 43] next
22

Query CCCCCCCCCCCCCCCCOCCCOP(=O)(O)COC(COCC)Cn1cnc2c(N)nc(N)nc21 (racemic) [Cmpd 26] next
30.7

Query CCCCCCCCCCCCCCCCCCOCCOP(=O)(O)CO[C@H](COC)Cn1ccc(N)nc1=O [Cmpd 40] next
60.7

Query CCCCCCCCCCCCCCCCCCOCCOP(=O)(O)CO[C@H](CO)Cn1cnc2c(N)ncnc21 [Cmpd 1, reference compound] next
0.033

Query CCCCCCCCCCCCCCCCOCCCOP(=O)(O)CO[C@H](COC)Cn1cnc2c(OC)nc(N)nc21 [Cmpd 44] next
34.3

Query CCCCCCCCCCCCCCCCOCCCOP(=O)(O)COC(COC(C)C)Cn1cnc2c(N)ncnc21 (racemic) [Cmpd 19] next
30.3

More entries:
Fill blank: measured CC50 of the compound CCCCCCCCCCCCCCCCCCOCCOP(=O)(O)CO[C@@H](COC)Cn1cnc2c(=O)[nH]c(N)nc21 [Cmpd 35] is ____.
44

Query CCCCCCCCCCCCCCCCOCCCOP(=O)(O)CO[C@H](COC)Cn1cnc2c(=O)[nH]c(N)nc21 [Cmpd 36] next
29.3

Query CCCCCCCCCCCCCCCCCCOCCOP(=O)(O)CO[C@H](COC)Cn1cnc2c(N)nc(N)nc21 [Cmpd 23] next
18

Query CCCCCCCCCCCCCCCCOCCCOP(=O)(O)COC(COCC)Cn1cnc2c(N)ncnc21 (racemic) [Cmpd 18] next
23.6

Query CCCCCCCCCCCCCCCCCCOCCOP(=O)(O)CO[C@H](COC)Cn1cnc2c(=O)[nH]c(N)nc21 [Cmpd 34] next
25

Query CCCCCCCCCCCCCCCCCCOCCOP(=O)(O)CO[C@@H](COC)Cn1cnc2c(N)nc(N)nc21 [Cmpd 24] next
19.7

Query CCCCCCCCCCCCCCCCOCCCOP(=O)(O)CO[C@H](COC)Cn1cnc2c(N)nc(N)nc21 [Cmpd 25] next
22.7

====

experiment: cytotoxicity (CC50) in HCV replicon cells / Huh 7.5 liver cells; conditions: human
readout.label: CC50 (µM)
Write the answer as a number in µM, unit excluded.

Fill blank: measured CC50 of the compound CCCCCCCCCCCCCCCCCCOCCOP(=O)(O)CO[C@H](CO)Cn1cnc2c(N)ncnc21 [Cmpd 1, reference compound] is ____.
35.6

====

system: Vaccinia; test: microbe, parasite or virus in culture; type: cell-based; conditions: Orthopoxvirus vaccinia, read-out: EC50 (μM) Vaccinia
readout.label: EC50 (µM)
Write the answer as a number in µM, unit excluded.

Fill blank: measured EC50 of the compound CCCCCCCCCCCCCCCCCCOCCOP(=O)(O)CO[C@H](COC)Cn1cnc2c(N)ncnc21 is ____.
18.3

====

assay: cytotoxicity in MT-2 cells; details: human
readout.label: CC50 (nM)
Write the answer as a number in nM, unit excluded.

Fill blank: measured CC50 of the molecule CCCCCCCCCCCCCCCCCCOCCOP(=O)(O)CO[C@H](CO)Cn1cnc2c(N)ncnc21 [Cmpd 1, reference compound] is ____.
30

====

system: HCV genotype 2a replicon (JFH-1); experiment: anti-HCV activity in genotype 2a replicon (JFH-1); type: cell-based, hepatitis C virus; settings: Hepatitis C virus, read-out: EC50 (μM) JFH-1 (2a)
readout.label: EC50 (µM)
Write the answer as a number in µM, unit excluded.

Example entries and their recorded answers appear below.
GET /values?readout=EC50&system=HCV genotype 2a replicon (JFH-1)&item= CCCCCCCCCCCCCCCCOCCCOP(=O)(O)CO[C@H](COC)Cn1cnc2c(=O)[nH]c(N)nc21 [Cmpd 36]
24.8

Query CCCCCCCCCCCCCCCCOCCCOP(=O)(O)COC(COCC)Cn1cnc2c(N)ncnc21 (racemic) [Cmpd 18] next
8.87

Query CCCCCCCCCCCCCCCCOCCCOP(=O)(O)COC(COC(C)C)Cn1cnc2c(N)ncnc21 (racemic) [Cmpd 19] next
98.8

Query CCCCCCCCCCCCCCCCCCOCCOP(=O)(O)CO[C@H](COC)Cn1cnc2c(=O)[nH]c(N)nc21 [Cmpd 34] next
10.7

More entries:
GET /values?readout=EC50&system=HCV genotype 2a replicon (JFH-1)&item= CCCCCCCCCCCCCCCCCCOCCOP(=O)(O)CO[C@H](CO)Cn1cnc2c(N)ncnc21 [Cmpd 1, reference compound]
1.65

Query CCCCCCCCCCCCCCCCOCCCOP(=O)(O)CO[C@H](COC)Cn1cnc2c(OC)ncnc21 [Cmpd 43] next
12.5

Query CCCCCCCCCCCCCCCCOCCCOP(=O)(O)COC(COCC)Cn1cnc2c(=O)[nH]c(N)nc21 (racemic) [Cmpd 37] next
13.2

Query CCCCCCCCCCCCCCCCCCOCCOP(=O)(O)CO[C@@H](COC)Cn1cnc2c(N)ncnc21 [Cmpd 16] next
5.33

Query CCCCCCCCCCCCCCCCOCCCOP(=O)(O)CO[C@H](COC)Cn1cnc2c(N)ncnc21 [Cmpd 17] next
4.64

Query CCCCCCCCCCCCCCCCCCOCCOP(=O)(O)CO[C@@H](COC)Cn1cnc2c(=O)[nH]c(N)nc21 [Cmpd 35] next
12.4

Query CCCCCCCCCCCCCCCCOCCCOP(=O)(O)CO[C@H](COC)Cn1cnc2c(N)nc(N)nc21 [Cmpd 25] next
23.6

Query CCCCCCCCCCCCCCCCCCOCCOP(=O)(O)CO[C@@H](COC)Cn1cnc2c(N)nc(N)nc21 [Cmpd 24] next
25.8

Query CCCCCCCCCCCCCCCCOCCCOP(=O)(O)CO[C@H](COC)Cn1cnc2c(OC)nc(N)nc21 [Cmpd 44] next
17.4

Query CCCCCCCCCCCCCCCCCCOCCOP(=O)(O)CO[C@H](COC)Cn1cnc2c(N)nc(N)nc21 [Cmpd 23] next
21.4

Query CCCCCCCCCCCCCCCCOCCCOP(=O)(O)COC(COCC)Cn1cnc2c(N)nc(N)nc21 (racemic) [Cmpd 26] next
19.5

Query CCCCCCCCCCCCCCCCCCOCCOP(=O)(O)CO[C@H](COC)Cn1cnc2c(N)ncnc21 [Cmpd 15] next
2.38
